# procedure.summary: collision cross section (TIMS, N2 drift gas) of the primary ion; higher = larger gas-phase ion size
# condition.parameters: ionization mode: ESI+; ion species: [M+H]+
metric.name: collision cross section (Å²)
Dear colleague, please return just the value in Å², with no unit written.

Query: Which collision cross section value is on record for CC(C)c1c(C(=O)Nc2ccccc2)c(-c2ccccc2)c(-c2ccc(F)cc2)n1CCC(O)CC(O)CC(=O)O (stereo not drawn) ?
Response: 232.51

Query: Also Clc1ccc(COC(Cn2ccnc2)c2ccc(Cl)cc2Cl)c(Cl)c1 (stereo not drawn) , if possible.
Response: 191.81

Query: CC(=O)OCC(=O)[C@@]12OC3(CCCC3)O[C@@H]1C[C@H]1[C@@H]3CCC4=CC(=O)C=C[C@]4(C)[C@@]3(F)[C@@H](O)C[C@@]12C [Amcinonide] ?
Response: 217.58

----------
# procedure.summary: reversed-phase LC retention time (C18, 15 min MeOH gradient); higher = more hydrophobic / later elution
# condition.parameters: ionization mode: ESI-; ion species: [M-H]-
Everything with reversed-phase LC retention time lower than 10 min is n; everything else, including exactly 10 min, is y.

Query: Has O=c1[nH]c2ccccc2s1 [2-Hydroxybenzothiazole] a recorded reversed-phase LC retention time greater than or equal to 10 min?
Response: y

Query: And what about the molecule `COc1ccc(-c2coc3cc(O)ccc3c2=O)cc1` ?
Response: y

Query: Can you check `CON(C)C(=O)Nc1ccc(Cl)c(Cl)c1` next?
Response: y

Query: Could you do the same for `CCCc1cc(=O)[nH]c(=S)[nH]1` , please?
Response: n

Query: Similarly, `Cc1cc(Cc2cc(C)cc(C(C)(C)C)c2O)c(O)c(C(C)(C)C)c1` ?
Response: y

----------
# procedure.summary: reversed-phase LC retention time (C18, 15 min MeOH gradient); higher = more hydrophobic / later elution
# condition.parameters: ionization mode: ESI+; ion species: [M+H]+
metric.name: reversed-phase LC retention time (min)
Give the value in min but do not write min after it.

A selection of reference data follows.
molecule=CCN1CCN(c2cc3c(cc2F)c(=O)c(C(=O)O)cn3C2CC2)CC1 data_value=8.4
molecule=CNCCCN1c2ccccc2CCc2ccccc21 data_value=12.9
molecule=CC#Cc1cc(C)nc(Nc2ccccc2)n1 data_value=14.6
molecule=O=C1CCCCCCCCCCCN1 data_value=13.9
molecule=CCNc1nc(Cl)nc(NC(C)(C)C)n1 data_value=14
molecule=C[Si](Cn1cncn1)(c1ccc(F)cc1)c1ccc(F)cc1 data_value=15.2
molecule=CN(C)C(=O)Nc1ccc(Cl)c(Cl)c1 data_value=13
molecule=CC1=NNC(=O)N(/N=C/c2cccnc2)C1 data_value=5.8
molecule="NS(=O)(=O)c1cc(C(=O)O)c(NCc2ccco2)cc1Cl [Furosemide]" data_value=14.3

Query: Requested field: reversed-phase LC retention time. Item: `COc1cc2ccc(=O)oc2c(OC)c1OC`
Response: 10.6

----------
A collection of molecules and their measured collision cross section
# procedure.summary: collision cross section (TIMS, N2 drift gas) of the primary ion; higher = larger gas-phase ion size
# condition.parameters: ionization mode: ESI+; ion species: [M+H]+
Just the number in Å², nothing appended.

molecule="CCCCN(C=O)CCCC [N,N-Di-n-butylformamide]" value_unit=Å² data_value=141.17

Query: Field request: collision cross section | item: NC(=O)N1c2ccccc2C(O)C(O)c2ccccc21 (centres undefined) [10,11-Dihydro-10,11-dihydroxycarbamazepine]
Response: 157.4

Query: Quick one: C[C@@H]1C[C@H]2[C@@H]3CCC4=CC(=O)C=C[C@]4(C)[C@@]3(Cl)[C@@H](O)C[C@]2(C)[C@@]1(OC(=O)c1ccco1)C(=O)CCl [Mometasone fuorate]
Response: 217.59

Query: Param item: `CCCCCCCCCCCCCCN(C)C`
Response: 179.2

----------
# procedure.summary: reversed-phase LC retention time (C18, 15 min MeOH gradient); higher = more hydrophobic / later elution
# condition.parameters: ionization mode: ESI-; ion species: [M-H]-
The threshold is inclusive: reversed-phase LC retention time of exactly 10 min counts as fulfilled; values below receive not fulfilled.

compound="Oc1c(Cl)c(Cl)c(Cl)c(Cl)c1Cl [Pentachlorophenol]" assigned_label=fulfilled
compound="CCCOC(=O)c1ccc(O)cc1 [Propylparaben]" assigned_label=fulfilled
compound="CC(=O)CCc1ccc(O)cc1 [4-(4-Hydroxyphenyl)butan-2-one]" assigned_label=fulfilled
compound="CCCCCCCCCCCCCCOS(=O)(=O)O [Tetradecylsulfate]" assigned_label=fulfilled

Query: Does O=C(NC(=O)c1c(F)cccc1F)Nc1ccc(Cl)cc1 [Diflubenzuron] have a reported reversed-phase LC retention time of at least 10 min?
Response: fulfilled

Query: Same question, Clc1ccc2n[nH]nc2c1 [5-Chlorobenzotriazole] this time
Response: not fulfilled

Query: // same read-out, input: C[C@H]1C[C@H]2[C@@H]3CCC4=CC(=O)C=C[C@]4(C)[C@@]3(Cl)[C@@H](O)C[C@]2(C)[C@@]1(O)C(=O)CO [Beclomethasone]
Response: fulfilled

Query: // query: O=S(=O)(O)c1ccccc1 [Benzenesulfonic acid]
Response: not fulfilled

----------
# procedure.summary: reversed-phase LC retention time (C18, 15 min MeOH gradient); higher = more hydrophobic / later elution
# condition.parameters: ionization mode: ESI+; ion species: [M+H]+
metric.name: reversed-phase LC retention time (min)
Entry rule: numbers only, all in min.

Use these answered entries as a reference point.
compound=CCCN(CCOc1c(Cl)cc(Cl)cc1Cl)C(=O)n1ccnc1 data_value=15.7
compound=Nc1ccc(Oc2ccc(Cl)cc2Cl)cc1C(=O)O data_value=15.4
compound=O=C(NC(=O)c1c(F)cccc1F)Nc1ccc(Cl)cc1 data_value=15.1
compound="CCCCCCCCCCCOC(=O)c1ccccc1C(=O)OCCCCCCCCCCC [Diundecylphthalate]" data_value=20.8
compound=O=C(Nc1ccccc1-c1ccc(Cl)cc1)c1cccnc1Cl data_value=14.2
compound=C#C[C@]1(O)CC[C@H]2[C@@H]3CCC4=CC(=O)CC[C@@H]4[C@H]3CC[C@@]21C data_value=13.9

Here is another compound to look at.
Query: Form field: reported reversed-phase LC retention time of CN(C)CCC(c1ccc(Cl)cc1)c1ccccn1 (stereo not given)
Response: 10.8

----------
Each entry below carries its reported collision cross section.
# procedure.summary: collision cross section (TIMS, N2 drift gas) of the primary ion; higher = larger gas-phase ion size
# condition.parameters: ionization mode: ESI+; ion species: [M+H]+

smi=O=C1CC2(CCCCC2)CN1 metric_name="collision cross section" data_value="135.35 Å²"
smi=OCCN1CCN(CC/C=C2/c3ccccc3Sc3ccc(C(F)(F)F)cc32)CC1 metric_name="collision cross section" data_value="200.91 Å²"

Query: Any idea what collision cross section was measured for `CC(C)Oc1cc(-n2nc(C(C)(C)C)oc2=O)c(Cl)cc1Cl` ?
Response: 182.66 Å²

----------
# procedure.summary: reversed-phase LC retention time (C18, 15 min MeOH gradient); higher = more hydrophobic / later elution
# condition.parameters: ionization mode: ESI+; ion species: [M+H]+
Listing of entries alongside the reported reversed-phase LC retention time.
All answers are understood in min, so give the number only.

Worked examples, 4 compounds total:
compound="O=P(Oc1ccccc1)(Oc1ccccc1)Oc1ccccc1 [Triphenylphosphate]" metric_name="reversed-phase LC retention time" data_value=15.7
compound="CCCCOC(=O)c1ccccc1C(=O)OCCCC [Dibutylphthalate]" metric_name="reversed-phase LC retention time" data_value=16.4
compound="CC(NC(C)(C)C)C(=O)c1cccc(Cl)c1 (stereo not given)" metric_name="reversed-phase LC retention time" data_value=10.3
compound="COCC(=O)N(c1c(C)cccc1C)C(C)C(=O)OC (stereo not given) [Metalaxyl]" metric_name="reversed-phase LC retention time" data_value=12.7

Now consider a different compound.
Query: Can you share its reversed-phase LC retention time? I mean this compound: O=C(Nc1ccccc1)c1ccccc1SSc1ccccc1C(=O)Nc1ccccc1 [2,2'-Dithiobisbenzanilide]
Response: 16.2

----------
Each item that follows carries a reported collision cross section.
# procedure.summary: collision cross section (TIMS, N2 drift gas) of the primary ion; higher = larger gas-phase ion size
# condition.parameters: ionization mode: ESI+; ion species: [M+H]+
Kindly answer with a numeric value in Å², unit omitted.

# example entries with known answers
compound="CCCCCCCCCCCC(=O)NCC(C)O (stereo not drawn) [Lauric isopropanolamide]" metric_name="collision cross section" value_unit=Å² data_value=178.97
compound=CC(=O)N1CCN(c2ccc(OC[C@H]3CO[C@](Cn4ccnc4)(c4ccc(Cl)cc4Cl)O3)cc2)CC1 metric_name="collision cross section" value_unit=Å² data_value=216.99
compound="NS(=O)(=O)c1cc(C(=O)O)c(NCc2ccco2)cc1Cl [Furosemide]" metric_name="collision cross section" value_unit=Å² data_value=161.99

Query: What collision cross section value was documented for this compound, [O-][n+]1cccc2ccccc21 [Quinoline N-oxide] ?
Response: 124.14

Query: Would you mind doing CC(C)OC(=O)CCCCCCCCC(=O)OC(C)C [Diisopropyl sebacate] as well?
Response: 172.78
